tested on: MDA-MB-435; experiment: NCI tumour cell line growth inhibition, 48 h
Calls of active or inactive are those of the source. Cut-off read from the data, not from the text of the source: active = GI50 up to about 1.1 µM and inactive = higher. Where a SMILES comes first, the peptide text is derived from it. [ ]: non-standard residue; d: D form. Aoe = N[C@@H](CCCCCC(=O)[C@@H]1CO1)C(=O)O
# output must be one of true (1) for active, false (0) for inactive

C/C(=N\Nc1ncnc2ccccc12)c1ccccn1 = true (1)
O=C1N[C@@H](Cc2ccccc2)C(=O)N2CCC[C@@H]2C(=O)N[C@@H](CCCCCC(=O)[C@@H]2CO2)C(=O)N[C@H]1Cc1ccccc1 [TRAPOXIN B] (cyclo(FF[dP][Aoe])) = true (1)
C[N+](C)(C)CC(=O)N/N=C(/CC1OC(=O)c2ccccc21)c1ccccc1O (stereo not given) = false (0)

What is the recorded call for this molecule in the test? `OCCOc1ccccc2cccc1-2`
false (0)

What is the recorded call for this molecule in the test? `CCC(/C=C/c1ccccc1)=N\NC(=S)N/N=C(/C=C/c1ccccc1)CC`
false (0)

----------
tested on: MDA-N; assay: NCI tumour cell line growth inhibition, 48 h
The source made the active and inactive calls. Rule as the data show it: active = GI50 up to about 1.1 µM and inactive = higher.
# output must be one of y for active, n for inactive

# count of solved cases: 5
O=C(O)c1ccccc1/C=C1/Nc2ccccc2C1=O = n
Cc1c2ccc3ccccc3c2c[n+]2ccccc12 = n
O=C(Nc1c(Cl)cc([N+](=O)[O-])cc1Cl)C(=O)C1C(=O)NC(=S)NC1=O = n
O=[N+]([O-])c1cc2c(c([N+](=O)[O-])c1)NCc1ccccc1O2 = n
O=[N+]([O-])c1ncc(N(CCO)CCO)s1 = n

What is the recorded call for this molecule in the test? `CCOC(=O)Nc1cc2c(c(N)n1)N=C(c1ccc(Cl)cc1Cl)CN2`
y

----------
tested on: SK-MEL-5; experiment: NCI tumour cell line growth inhibition, 48 h
Calls of active or inactive are those of the source. Rule as the data show it: active = GI50 up to about 1.1 µM and inactive = higher.
Listed here are compounds together with their documented GI50.

Below: 5 compounds and their reported GI50.
CCOC(=O)C12CC1(C(=O)OCC)C1CCC2C1 (stereo unspecified) = 54.1 µM (inactive)
O=C(O)CCCCCNC(=O)CCC(CN(CC(=O)OCc1ccccc1)CC(=O)OCc1ccccc1)N(CC(=O)OCc1ccccc1)CC(=O)OCc1ccccc1 (stereo unspecified) = 17.3 µM (inactive)
COc1nc2[nH]ccc2c(=O)n1C = > 100 µM (inactive)
C/C(=N\Nc1ncnc2ccccc12)c1ccccn1 = 0.0237 µM (active)
[O-][S+](Cc1cc2c(cc1Br)OCO2)c1ccccc1 (stereo unspecified) = 61.5 µM (inactive)

// next entry
Requested field: GI50. Item: `COc1cc(Cn2c3c(c4cc(O)ccc42)C(=O)c2ccccc2C3=O)cc(OC)c1`
4.29 µM (inactive)

----------
system: OVCAR-4; assay: NCI tumour cell line growth inhibition, 48 h
Active and inactive are the calls of the source. Rule as the data show it: active = GI50 up to about 1.1 µM and inactive = higher.
# output must be one of class 1 = active, class 0 = inactive

What is the recorded call for this compound in the test? `CCN(CC)C(=S)SS(C)(=O)=O`
class 0

What is the recorded call for this compound in the test? O=C1CSC2(CC(/C=C/c3ccccc3Br)=NN2c2cccc(S(=O)(=O)O)c2)N1c1nc2ccccc2s1 (centres undefined)
class 0

What is the recorded call for this compound in the test? CC(=O)OC1COC(Nc2nc(N)n(C)c(=O)c2N=O)C(OC(C)=O)C1OC(C)=O (centres undefined)
class 0

What is the recorded call for this compound in the test? `O=C1c2ccccc2-c2c1c1ccccc1c(=O)n2CCO`
class 0
